# measurement target: T1, MA Peptide (fluorescence polarization)
# T1 peptide: MAKLDEESILKQK(FITC)
# method summary: fluorescence polarization, FITC peptide titrated with protein
No end group written: not given here. *: point of attachment. FITC = O=C1OC2(c3ccc(O)cc3Oc3cc(O)ccc32)c2ccc(NC(=S)*)cc21
endpoint label: pKd
Just the number, please; pKd means minus log10 of the concentration in mol/L.

# count of solved cases: 3
{"binder": "PS968 (designed binder, Variant of PS557; also called V72M, Q55R, Y100R) MPTAASATESAIEDTPAPARPEVDGRTKPKRQPRYHVVLWNDDDHTYQYVVVMLRSLFGHPPERGYRLAKEMDTQGRVIVLTTTREHAELKRDQIHAFGRDRLLARSKGSMKASIEAEE", "pKd": 6.40}
{"binder": "PS934 (designed binder, Variant of PS557; also called N41D, V72M, L68M, P62R) MPTAASATESAIEDTPAPARPEVDGRTKPKRQPRYHVVLWDDDDHTYQYVVVMLQSLFGHPRERGYRMAKEMDTQGRVIVLTTTREHAELKRDQIHAFGYDRLLARSKGSMKASIEAEE", "pKd": 6.49}
{"binder": "PS857 (designed binder, Variant of PS557; also called N41D, V72M, L68M) MPTAASATESAIEDTPAPARPEVDGRTKPKRQPRYHVVLWDDDDHTYQYVVVMLQSLFGHPPERGYRMAKEMDTQGRVIVLTTTREHAELKRDQIHAFGYDRLLARSKGSMKASIEAEE", "pKd": 6.13}

Please look at the following binder next.
State the recorded pKd for this entry: PS961 (designed binder, Variant of PS557; also called N41D, V72M, Q55R, E63S, L68M, Y100R) MPTAASATESAIEDTPAPARPEVDGRTKPKRQPRYHVVLWDDDDHTYQYVVVMLRSLFGHPPSRGYRMAKEMDTQGRVIVLTTTREHAELKRDQIHAFGRDRLLARSKGSMKASIEAEE
6.84
